# Lookup of reported Total Cell Count keyed by entry
# Test system: Fibroblast
# test-details: Multiplex assay against human fibroblast
# Assay type: toxicity, cell-based
# applied-conditions: 12 h, 10 µM, compound concentration 10 uM, replicate 2
Non-standard residues stand in square brackets, D forms with d. Residues, ends and D or L forms follow the SMILES beside them.

- compound: "CN(C)C/C=C/C(=O)Nc1ccc(C(=O)N2CCCC(Nc3ncc(Cl)c(-c4c[nH]c5ccccc45)n3)C2)cc1 (configuration not stated)"
  target-desc: "Fibroblast"
  Total Cell Count: 147
- compound: "CN1CCN2c3ccccc3Cc3ccccc3C2C1.Cl (configuration not stated) [MIANSERIN HYDROCHLORIDE]"
  target-desc: "Fibroblast"
  Total Cell Count: 116
- compound: "Cn1cc(C(=O)OCC2CCN(CCNS(C)(=O)=O)CC2)c2ccccc21"
  target-desc: "Fibroblast"
  Total Cell Count: 184

[Q] Provide one value: measured Total Cell Count of C[C@H](NC(=O)CNC(=O)c1cccc(Cl)c1)c1ccccc1
[A] 124

[Q] Determine its reported Total Cell Count: Cc1sc2c(c1C)C(c1ccc(Cl)cc1)=N[C@H](CC(=O)OC(C)(C)C)c1nnc(C)n1-2
[A] 169

[Q] Provide one value: measured Total Cell Count of O=C(Nc1cc(-c2ccccc2)nn1-c1ccccc1F)c1ccc([N+](=O)[O-])cc1
[A] 149

[Q] Look up and state reported Total Cell Count for CC(C)(O)C(=O)N1CCN(c2ccc(C(F)(F)F)c(C3=C(c4c[nH]c5ccccc45)C(=O)NC3=O)c2)CC1
[A] 137

[Q] Assign Total Cell Count to the following record: S=C(NCCCc1c[nH]cn1)NCCCN(Cc1ccc(Cl)c(Cl)c1)c1ccc(Br)cn1
[A] 279

[Q] Consider the compound CC(C)C[C@@H]1NC(=O)[C@@H](C(C)C)NC(=O)[C@@H]2CCCN2C(=O)[C@@H](CC(=O)O)NC(=O)[C@@H](Cc2c[nH]c3ccccc23)NC1=O [BQ-123] (cyclo(L[dW][dD]P[dV])) . State its measured Total Cell Count.
[A] 134

[Q] Specify reported Total Cell Count for the compound shown: COC(c1ccccc1)(c1ccccc1)[C@H](Oc1nc(C)cc(C)n1)C(=O)O
[A] 82

[Q] Identify measured Total Cell Count corresponding to Nc1nc(-c2ccco2)c2cnn(Cc3ccccc3F)c2n1
[A] 147

[Q] Query Total Cell Count for CSc1nc(NC2CCCC2)c([N+](=O)[O-])c(NC2CCCC2)n1
[A] 165

* * *

# System: Fibroblast
# test-details: Multiplex assay against human fibroblast
# Format: toxicity, cell-based
# applied-conditions: 24 h, 1 µM, compound concentration 1 uM, replicate 1
metric-name: Total Cell Count
Please give only the number in your answer, with no unit.

A selection of reference data follows.
- molecule: "CC(C)C[C@H](CO)Nc1nc(S[C@@H](C)c2ccccc2)nc2nc(N)sc12 [AZD-8797]"
  Total Cell Count: 124
- molecule: "COc1cc2nc(N3CCN(C(=O)COc4c(OC)cccc4C(C)C)CC3)nc(N)c2cc1OC.Cl.Cl"
  Total Cell Count: 128
- molecule: "Cc1cc(O)c(-c2ccc([C@@H](C)CN(C)C)cc2)c2c1[nH]c(=O)c1sccc12"
  Total Cell Count: 119
- molecule: "CN(C)C/C=C/C(=O)Nc1ccc(C(=O)N2CCCC(Nc3ncc(Cl)c(-c4c[nH]c5ccccc45)n3)C2)cc1 (stereo not given)"
  Total Cell Count: 155

Now take the following molecule into account.
[Q] # return recorded Total Cell Count for input CC(F)(F)CN1CCOc2c(nn(-c3ccccc3Cl)c2-c2ccc(Cl)cc2)C1=O
[A] 119

* * *

# System: U2OS
# test-details: Multiplex assay against U2OS
# Type: toxicity, cell-based
# applied-conditions: human, 48 h, 1 µM, compound concentration 1 uM, replicate 1
Recorded measurements of Population Tubulin-Different-Phenotype (%), one per entry
Answer format: numeric, % implied, no suffix.

Example results:
- smiles-notation: "S=C(NCCCc1c[nH]cn1)NCCCN(Cc1ccc(Cl)c(Cl)c1)c1ccc(Br)cn1"
  target-desc: "U2OS"
  uom: "%"
  recorded-result: 2
- smiles-notation: "Cc1cc(O)c(-c2ccc([C@@H](C)CN(C)C)cc2)c2c1[nH]c(=O)c1sccc12"
  target-desc: "U2OS"
  uom: "%"
  recorded-result: 25

[Q] Using the record for COc1cc(OC2CCN(C(C)=O)CC2)ccc1C(=O)N1CCC(N2C(=O)OCc3ccccc32)CC1 , state its measured Population Tubulin-Different-Phenotype (%).
[A] 2

* * *

# Tested on: HEK-293T
# test-details: Multiplex assay against HEK293T
# Type: toxicity, cell-based
# applied-conditions: human, 12 h, 10 µM, compound concentration 10 uM, replicate 1
In this section we review reported Population Fragmented Nuclei (%) values for a set of compounds.
Provide the reading as a plain figure in %.

- compound: "Cl.Cl.OCCOCCN1CCN(C(c2ccccc2)c2ccc(Cl)cc2)CC1 (centres undefined) [HYDROXYZINE HYDROCHLORIDE]"
  uom: "%"
  recorded-result: 8
- compound: "Cc1c(Cc2ccc3ccccc3n2)c2cc(F)ccc2n1CC(=O)O [TIMAPIPRANT]"
  uom: "%"
  recorded-result: 7

[Q] Tell me its Population Fragmented Nuclei (%) given Cc1cc(O)c(-c2ccc([C@@H](C)CN(C)C)cc2)c2c1[nH]c(=O)c1sccc12 as the entry.
[A] 6

[Q] Supply measured Population Fragmented Nuclei (%) of Nc1nc(CC(=O)Nc2ccc(CCNC[C@H](O)c3ccccc3)cc2)cs1 [MIRABEGRON] in your reply.
[A] 5

[Q] State its Population Fragmented Nuclei (%): OCCCNc1cc(-c2ccnc(Nc3cccc(Cl)c3)n2)ccn1
[A] 14

[Q] Please report Population Fragmented Nuclei (%) for the following compound: COc1ccc2c(c1OCc1ccccc1)C[C@@H](C(=O)O)N(C(=O)C(c1ccccc1)c1ccccc1)C2 [OLODANRIGAN]
[A] 6

[Q] For the compound COC(c1ccccc1)(c1ccccc1)[C@H](Oc1nc(C)cc(C)n1)C(=O)O [AMBRISENTAN] , give its reported Population Fragmented Nuclei (%).
[A] 8

[Q] Answer with reported Population Fragmented Nuclei (%) of Cc1nn(C)c2nc(NNC(=O)Nc3cc(Cl)nc(Cl)c3)cc(C(C)C)c12
[A] 5

[Q] Please give measured Population Fragmented Nuclei (%) of the following entry: Cc1cc(NC(=O)NCCN2CCC(O)(Cc3ccccc3)CC2)c2ccccc2n1 [PALOSURAN]
[A] 5

[Q] Provide measured Population Fragmented Nuclei (%) value, entry: CC(C)C[C@H](CO)Nc1nc(S[C@@H](C)c2ccccc2)nc2nc(N)sc12 [AZD-8797]
[A] 9

* * *

# Test system: Fibroblast
# test-details: Multiplex assay against human fibroblast
# Type: toxicity, cell-based
# applied-conditions: 12 h, 1 µM, compound concentration 1 uM, replicate 2
The compounds listed here are annotated with their Population Fragmented Nuclei (%).
Field: numeric (%). Do not append units.

As a guide, the following entries are already answered.
- compound: "CN1CCC(C(=O)c2cccc(NC(=O)c3c(F)cc(F)cc3F)n2)CC1"
  metric-name: "Population Fragmented Nuclei (%)"
  recorded-result: 28
- compound: "COc1cc(C(=O)N2CC[C@@H](O)[C@@H](N)C2)cc2nc(-c3cc4ccccc4n3CC3CC3)n(C)c12.Cl"
  metric-name: "Population Fragmented Nuclei (%)"
  recorded-result: 24
- compound: "COc1cc2nc(N3CCN(C(=O)c4ccco4)CC3)nc(N)c2cc1OC.Cl [PRAZOSIN HYDROCHLORIDE]"
  metric-name: "Population Fragmented Nuclei (%)"
  recorded-result: 20

[Q] Using the record for CN1CCN2c3ccccc3Cc3ccccc3C2C1.Cl (centres undefined) [MIANSERIN HYDROCHLORIDE] , state its measured Population Fragmented Nuclei (%).
[A] 27

* * *

# System: HEK-293T
# test-details: Multiplex assay against HEK293T
# Assay type: toxicity, cell-based
# applied-conditions: human, 12 h, 1 µM, compound concentration 1 uM, replicate 2
Give true when the value for Population Apoptotic (%) is at least 50%. Give false when it is less.

Known results for molecules:
- molecule: "COc1cc(OC2CCN(C(C)=O)CC2)ccc1C(=O)N1CCC(N2C(=O)OCc3ccccc32)CC1"
  target-desc: "HEK-293T"
  answer-label: "false"
- molecule: "CN(C)C/C=C/C(=O)Nc1ccc(C(=O)N2CCCC(Nc3ncc(Cl)c(-c4c[nH]c5ccccc45)n3)C2)cc1 (centres undefined)"
  target-desc: "HEK-293T"
  answer-label: "true"
- molecule: "Cc1ccc(OCC(O)C(C)NC(C)C)c2c1CCC2.Cl (centres undefined)"
  target-desc: "HEK-293T"
  answer-label: "false"
- molecule: "OCCCNc1cc(-c2ccnc(Nc3cccc(Cl)c3)n2)ccn1"
  target-desc: "HEK-293T"
  answer-label: "true"
- molecule: "Cc1cc(NC(=O)NCCN2CCC(O)(Cc3ccccc3)CC2)c2ccccc2n1"
  target-desc: "HEK-293T"
  answer-label: "false"

[Q] Can CN1C[C@H](C(=O)N[C@]2(C)O[C@@]3(O)[C@@H]4CCCN4C(=O)[C@H](Cc4ccccc4)N3C2=O)C[C@@H]2c3cccc4[nH]cc(c34)C[C@H]21.CS(=O)(=O)O [DIHYDROERGOTAMINE MESYLATE] be said to have Population Apoptotic (%) at or above 50%?
[A] false

[Q] Threshold query (Population Apoptotic (%) >= 50%) on O=C(Nc1cc(-c2ccccc2)nn1-c1ccccc1F)c1ccc([N+](=O)[O-])cc1
[A] false

[Q] Decide: is the reported value of Population Apoptotic (%) for Cn1cc(C(=O)OCC2CCN(CCNS(C)(=O)=O)CC2)c2ccccc21 equal to or greater than 50%?
[A] true

[Q] Say whether CN1CCN(c2ccc(Nc3c4ccccc4nc4ccccc34)cc2)CC1.Cl.Cl.O shows Population Apoptotic (%) of 50% or more.
[A] true

[Q] Entry Cc1cc(-c2ccc3c(c2)CC[C@H]3N2CC3(CCN(C(=O)Cc4cn5cc(C)sc5n4)CC3)C2)ncn1 : is its Population Apoptotic (%) no less than 50%?
[A] false

[Q] Kindly determine if Population Apoptotic (%) recorded for CN1CCC(C(=O)c2cccc(NC(=O)c3c(F)cc(F)cc3F)n2)CC1 is above or exactly 50%.
[A] true
